Give measured in vitro Activity Compared to Native Peptide (%), vs Glucagon for each item. Keep answers brief.
study.target: human GCG receptor (human, UniProt P47871 26-477)
Sequence (P47871 26-477): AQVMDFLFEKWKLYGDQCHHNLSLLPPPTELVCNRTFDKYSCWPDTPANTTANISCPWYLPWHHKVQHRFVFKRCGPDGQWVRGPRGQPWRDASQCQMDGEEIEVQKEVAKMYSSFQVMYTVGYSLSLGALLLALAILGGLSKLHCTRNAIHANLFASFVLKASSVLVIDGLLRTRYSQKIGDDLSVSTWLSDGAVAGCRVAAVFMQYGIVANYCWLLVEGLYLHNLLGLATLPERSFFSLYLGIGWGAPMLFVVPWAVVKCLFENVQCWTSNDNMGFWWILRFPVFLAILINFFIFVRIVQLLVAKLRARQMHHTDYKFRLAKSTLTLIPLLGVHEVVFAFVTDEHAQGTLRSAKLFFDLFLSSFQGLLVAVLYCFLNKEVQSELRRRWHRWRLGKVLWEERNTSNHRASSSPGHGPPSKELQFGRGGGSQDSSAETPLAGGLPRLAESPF
measurement.notes: cell-based or functional assay
Bridges are numbered along the chain shown (N, C = ends). Where no end group is shown, it is not given here. [ ]: non-standard residue; d: D form. The star is where a group is joined. Acetyl(2-(4-imidazolyl)) = O=C(Cc1c[nH]cn1)*; Aib = CC(C)(N)C(=O)O

Field: example entries. Status: answers known.
{"columns": ["binder", "recorded.result"],
 "data": [
  ["[Acetyl(2-(4-imidazolyl))][Aib]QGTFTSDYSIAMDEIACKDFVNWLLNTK (bridge 16-20; not fully specified (C-terminus)) [triple agonist of SEQ ID NO: 61]", "< 0.1%"],
  ["H[Aib]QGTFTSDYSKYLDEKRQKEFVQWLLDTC (bridge 16-20; not fully specified (C-terminus)) [triple agonist of SEQ ID NO: 52]", "7.5%"],
  ["H[Aib]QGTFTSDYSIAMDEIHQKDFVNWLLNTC (bridge 16-20; not fully specified (C-terminus)) [triple agonist of SEQ ID NO: 57]", "< 0.1%"],
  ["[Acetyl(2-(4-imidazolyl))][Aib]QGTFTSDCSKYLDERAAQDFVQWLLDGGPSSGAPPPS (not fully specified (C-terminus)) [triple agonist of SEQ ID NO: 63]", "< 0.1%"],
  ["[Acetyl(2-(4-imidazolyl))][Aib]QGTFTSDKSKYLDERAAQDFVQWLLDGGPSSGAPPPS (not fully specified (C-terminus)) [triple agonist of SEQ ID NO: 62]", "< 0.1%"]
]}

Please give in vitro Activity Compared to Native Peptide (%), vs Glucagon for each item listed below.
1. [Acetyl(2-(4-imidazolyl))][Aib]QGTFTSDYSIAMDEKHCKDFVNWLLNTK (bridge 16-20; not fully specified (C-terminus)) [triple agonist of SEQ ID NO: 60]
2. [Acetyl(2-(4-imidazolyl))]GEGTFISDYSIQLDEIAVQDFVEWLLAQKPSSGAPPPSHG-NH2 [triple agonist of SEQ ID NO: 13]
3. [Acetyl(2-(4-imidazolyl))][Aib]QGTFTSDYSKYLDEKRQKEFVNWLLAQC (bridge 16-20; not fully specified (C-terminus)) [triple agonist of SEQ ID NO: 86]
4. H[Aib]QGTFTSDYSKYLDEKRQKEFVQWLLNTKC (bridge 16-20; not fully specified (C-terminus)) [triple agonist of SEQ ID NO: 58]
5. Y[Aib]QGTFTSDYSKALDEKAAKDFVNWLLDHHPSSGQPPPSC (bridge 16-20; not fully specified (C-terminus)) [triple agonist of SEQ ID NO: 99]

["< 0.1%", "< 0.1%", "0.4%", "2.6%", "14.9%"]

Provide each entry's in vitro Activity Compared to Native Peptide (%), vs Glucagon from the list below.
1. Y[Aib]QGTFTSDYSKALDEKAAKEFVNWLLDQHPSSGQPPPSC (bridge 16-20; not fully specified (C-terminus); also: ring type not given here) [triple agonist of SEQ ID NO: 101]
2. Y[Aib]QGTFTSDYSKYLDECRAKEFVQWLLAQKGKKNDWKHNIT (bridge 16-20; not fully specified (C-terminus)) [triple agonist of SEQ ID NO: 23]
3. Y[Aib]QGTFTSDYSKYLDECRAKEFVQWLKNGGPSSGAPPPS (bridge 16-20; not fully specified (C-terminus)) [triple agonist of SEQ ID NO: 24]
4. H[Aib]QGTFTSDVSKYLDGQAAQEFVAWLLAGC (not fully specified (C-terminus)) [triple agonist of SEQ ID NO: 9]
5. Y[Aib]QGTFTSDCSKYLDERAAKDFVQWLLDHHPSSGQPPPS (bridge 16-20; not fully specified (C-terminus)) [triple agonist of SEQ ID NO: 72]
6. H[Aib]QGTFTSDVSKYLDGQAAQEFVAWLLKGC (not fully specified (C-terminus)) [triple agonist of SEQ ID NO: 8]
7. H[Aib]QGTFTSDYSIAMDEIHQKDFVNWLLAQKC (bridge 16-20; not fully specified (C-terminus)) [triple agonist of SEQ ID NO: 33]
8. [Acetyl(2-(4-imidazolyl))][Aib]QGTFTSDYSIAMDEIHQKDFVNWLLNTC (bridge 16-20; not fully specified (C-terminus)) [triple agonist of SEQ ID NO: 87]

1. 13.9%
2. 9.3%
3. 9.3%
4. 0.13%
5. 1%
6. 0.1%
7. < 0.1%
8. < 0.1%
